targetOrSystem: Inhibitor of nuclear factor kappa-B kinase subunit beta (Mus musculus, UniProt O88351)
Sequence (O88351 whole entry): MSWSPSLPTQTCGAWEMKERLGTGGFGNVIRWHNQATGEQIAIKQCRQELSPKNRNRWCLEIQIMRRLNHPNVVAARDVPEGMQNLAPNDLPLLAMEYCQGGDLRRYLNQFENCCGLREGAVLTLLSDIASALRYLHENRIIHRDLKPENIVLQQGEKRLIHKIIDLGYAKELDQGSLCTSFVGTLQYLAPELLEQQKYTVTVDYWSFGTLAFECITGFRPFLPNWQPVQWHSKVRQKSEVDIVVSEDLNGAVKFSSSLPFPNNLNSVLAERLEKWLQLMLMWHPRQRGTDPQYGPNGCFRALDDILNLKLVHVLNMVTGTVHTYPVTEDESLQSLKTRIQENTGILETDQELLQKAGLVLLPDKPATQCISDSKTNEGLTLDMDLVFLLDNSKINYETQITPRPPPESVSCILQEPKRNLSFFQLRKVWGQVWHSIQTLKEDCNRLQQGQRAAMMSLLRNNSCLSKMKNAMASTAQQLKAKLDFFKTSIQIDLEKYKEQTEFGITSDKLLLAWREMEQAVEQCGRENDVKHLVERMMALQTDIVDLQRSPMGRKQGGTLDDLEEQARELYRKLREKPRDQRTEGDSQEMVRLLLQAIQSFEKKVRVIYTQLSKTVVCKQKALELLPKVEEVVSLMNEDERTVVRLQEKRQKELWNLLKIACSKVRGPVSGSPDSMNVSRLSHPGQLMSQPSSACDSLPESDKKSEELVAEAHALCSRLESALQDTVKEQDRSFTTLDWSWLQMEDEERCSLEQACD
protocolDetails: Inhibition of IKKbeta in mouse CIA model splenocytes assessed as inhibition of TNFalpha production after 72 hrs by ELISA
pIC50: −log10 of the molar value.
measure: pIC50

Worked examples follow.
| substanceSmiles | pIC50 |
| --- | --- |
| NC(=O)c1ccc(Oc2ccc(/C=C3\SC(=S)N(c4ccc(OCCCN5CCCC5)cc4)C3=O)cc2)cc1 | 5.30 |
| NC(=O)c1cccc(Oc2ccc(/C=C3\SC(=S)N(c4ccc(OCCCN5CCCCC5)cc4)C3=O)cc2)c1 | 4.52 |
| CCN(CC)CCCOc1ccc(N2C(=O)/C(=C/c3ccc(Oc4ccc(Cl)cc4)cc3)SC2=S)cc1 | 4.89 |

[I] NC(=O)c1ccc(Oc2ccc(/C=C3\SC(=S)N(c4ccc(OCCCN5CCCCC5)cc4)C3=O)cc2)cc1
[II] NC(=O)c1cccc(Oc2ccc(/C=C3\SC(=S)N(c4ccc(OCCCN5CCCC5)cc4)C3=O)cc2)c1
[III] CN1CCN(CCCOc2ccc(N3C(=O)/C(=C/c4ccc(Oc5ccc(C(N)=O)cc5)cc4)SC3=S)cc2)CC1
Order field: pIC50 | Direction: descending (largest first) List the labels according to the requested ordering.
III, II, I
(III: 5.70, II: 5.15, I: 4.52)

----------
targetOrSystem: Inhibitor of nuclear factor kappa-B kinase subunit beta (Mus musculus, UniProt O88351)
protocolDetails: Inhibition of IKKbeta in mouse CIA model splenocytes assessed as inhibition of TNFalpha production after 72 hrs by ELISA
Format: cell-based
pIC50: −log10 of the molar value.
measure: pIC50

[I] CCN(CC)CCOc1ccc(N2C(=O)/C(=C/c3ccc(Oc4ccc(C(N)=O)cc4)cc3)SC2=S)cc1
[II] N#Cc1c(C2CCCNC2)cc(-c2ccccc2O)nc1N (stereo not drawn)
[III] CN1CCN(CCCOc2ccc(N3C(=O)/C(=C/c4ccc(Oc5cccc(C(N)=O)c5)cc4)SC3=S)cc2)CC1
Order by pIC50, ascending. # format: label list in the order the request specifies
I, III, II
(I: 5.10, III: 5.30, II: 5.74)

[a] CCN(CC)CCOc1ccc(N2C(=O)/C(=C/c3ccc(Oc4cccc(C(N)=O)c4)cc3)SC2=S)cc1
[b] CN1CCN(CCCOc2ccc(N3C(=O)/C(=C/c4ccc(Oc5ccccc5C(N)=O)cc4)SC3=S)cc2)CC1
[c] CN1CCN(CCCCOc2ccc(N3C(=O)/C(=C/c4ccc(Oc5ccc(C(N)=O)cc5)cc4)SC3=S)cc2)CC1
Rank items: key pIC50, increasing. List the labels in the requested order.
b, a, c

----------
targetOrSystem: Inhibitor of nuclear factor kappa-B kinase subunit beta (Homo sapiens) (UniProt O14920)
Sequence (whole entry): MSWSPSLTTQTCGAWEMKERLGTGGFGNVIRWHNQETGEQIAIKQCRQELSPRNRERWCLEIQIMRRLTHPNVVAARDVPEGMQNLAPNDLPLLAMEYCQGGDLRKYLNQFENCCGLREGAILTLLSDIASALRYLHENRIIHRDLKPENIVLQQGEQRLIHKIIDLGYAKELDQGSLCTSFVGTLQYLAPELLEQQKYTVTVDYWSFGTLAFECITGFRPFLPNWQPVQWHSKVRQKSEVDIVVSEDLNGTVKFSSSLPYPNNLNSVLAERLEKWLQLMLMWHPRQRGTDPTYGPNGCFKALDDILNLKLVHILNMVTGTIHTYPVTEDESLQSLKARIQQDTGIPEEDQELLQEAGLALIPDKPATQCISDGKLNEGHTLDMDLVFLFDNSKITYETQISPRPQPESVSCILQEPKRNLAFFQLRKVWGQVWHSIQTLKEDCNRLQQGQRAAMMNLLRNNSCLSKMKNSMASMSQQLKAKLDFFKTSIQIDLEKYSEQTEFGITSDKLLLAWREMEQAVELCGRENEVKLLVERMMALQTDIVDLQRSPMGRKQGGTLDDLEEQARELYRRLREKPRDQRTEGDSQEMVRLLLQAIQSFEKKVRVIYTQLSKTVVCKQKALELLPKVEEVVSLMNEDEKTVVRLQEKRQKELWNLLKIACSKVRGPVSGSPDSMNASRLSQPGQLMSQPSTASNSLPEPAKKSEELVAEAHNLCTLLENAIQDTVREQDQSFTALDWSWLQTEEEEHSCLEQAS
protocolDetails: Inhibition of IKKbeta in human HeLa cells assessed as inhibition of TPA-induced NFkappaB activation at 10 uM incubated for 1 hr prior to TPA-challenge measured after 8 hrs by luciferase reporter gene assay
Assay type: cell-based
measure: inhibition (%)

| compound | inhibition, % |
| --- | --- |
| NC(=O)c1ccc(Oc2ccc(/C=C3\SC(=S)N(c4ccc(OCCCN5CCCC5)cc4)C3=O)cc2)cc1 | 58.5 |
| CN1CCN(CCCOc2ccc(N3C(=O)/C(=C/c4ccc(Oc5ccccc5C(N)=O)cc4)SC3=S)cc2)CC1 | 42.4 |

[I] NC(=O)c1ccc(Oc2ccc(/C=C3\SC(=S)N(c4ccc(OCCCN5CCCCC5)cc4)C3=O)cc2)cc1
[II] N#Cc1c(C2CCCNC2)cc(-c2ccccc2O)nc1N (configuration not stated)
Smaller inhibition value, I vs II ? Your choice should be expressed through its label.
I
